The reported numbers originate from ChEMBL document CHEMBL3259698.

- assayNotes: Lipophilicity, log P of the compound by HPLC analysis
- Type: physicochemical
observable: logP
Form field (numeric): enter value without unit.

Before answering, review these 5 worked examples.
INSERT INTO measurements (recordsmiles, quantitativeresult) VALUES
  ('CCc1nc(C(F)(F)F)ccc1Cn1c(=O)c(-c2ccc(C#N)cc2)c(-c2ccc(Cl)cc2)c2nn(CC)c(=O)n21', 5),
  ('CCn1nc2c(-c3ccc(Cl)cc3)c(-c3ccc(CO)nc3)c(=O)n(Cc3ccc(C(F)(F)F)nc3C)n2c1=O', 3.6),
  ('O=c1[nH]n2c(=O)n(Cc3ccc(C(F)(F)F)nc3)nc2c(-c2ccncc2)c1-c1ccc(Cl)cc1', 2.5),
  ('CCCn1nc2c(-c3ccc(Cl)cc3)c(-c3ccc(C#N)cc3)c(=O)n(Cc3ccc(C(F)(F)F)nc3C)n2c1=O', 5.1),
  ('CCn1nc2c(-c3ccc(C)cc3)c(-c3ccc(C#N)cc3)c(=O)n(Cc3ccc(C(F)(F)F)nc3C)n2c1=O', 4.6);

# input # query: logP of entry CCn1nc2c(-c3ccc(Cl)cc3)c(-c3ccncc3F)c(=O)n(Cc3ccc(C(F)(F)F)nc3C)n2c1=O
# output 4.3

# input # query: logP of entry CCn1nc2c(-c3ccc(Cl)cc3)c(-c3ccc(C#N)cc3)c(=O)n(Cc3ccc(C)cc3)n2c1=O
# output 5.2

# input # query: logP of entry CCn1nc2c(-c3ccc(Cl)cc3)c(-c3ccc(C#N)c(C)c3)c(=O)n(Cc3ccc(C(F)(F)F)nc3C)n2c1=O
# output 5

---

- targetEntity: Cytochrome P450 3A4 (Homo sapiens, UniProt P08684)
- Sequence (P08684 whole entry): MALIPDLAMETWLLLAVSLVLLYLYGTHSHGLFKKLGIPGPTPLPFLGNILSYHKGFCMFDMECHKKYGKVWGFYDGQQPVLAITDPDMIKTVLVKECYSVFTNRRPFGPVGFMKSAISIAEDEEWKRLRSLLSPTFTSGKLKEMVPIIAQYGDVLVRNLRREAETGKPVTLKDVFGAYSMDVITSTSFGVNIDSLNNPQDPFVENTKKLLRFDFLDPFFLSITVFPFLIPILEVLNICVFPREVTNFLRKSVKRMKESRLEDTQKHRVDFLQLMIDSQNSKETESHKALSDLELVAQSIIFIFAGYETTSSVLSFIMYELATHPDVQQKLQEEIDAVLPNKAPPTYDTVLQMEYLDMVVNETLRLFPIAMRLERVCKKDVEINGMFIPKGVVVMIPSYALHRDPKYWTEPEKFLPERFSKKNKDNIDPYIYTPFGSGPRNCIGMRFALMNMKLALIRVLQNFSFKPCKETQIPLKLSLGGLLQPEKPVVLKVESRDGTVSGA
- assayNotes: Inhibition of CYP3A4 in human liver microsomes
- Format: ADME
observable: IC50

# input # query: IC50 of entry CCn1nc2c(-c3ccc(Cl)cc3)c(-c3ccncc3)c(=O)n(Cc3ccc(C(F)(F)F)nc3C)n2c1=O
# output 9.1 µM

---

- assayNotes: Elimination half life in iv dosed cynomolgus monkey
- Format: ADME, organism-based, Macaca fascicularis
- measurementSetup: in vivo, read-out: beta t1/2 (converted)
# half-life per record follows
Quick reminder: number only, in h, skip the unit.

Before answering, review these 4 worked examples.
INSERT INTO assay_data (recordsmiles, observable, quantitativeresult) VALUES
  ('CCn1nc2c(-c3ccc(Cl)cc3)c(-c3ccc(C#N)cc3)c(=O)n(Cc3ccc(C(F)(F)F)nc3C)n2c1=O', 'half-life', 40),
  ('CCn1nc2c(-c3ccc(Cl)cc3)c(-c3ccncc3)c(=O)n(Cc3ccc(C(F)(F)F)nc3C)n2c1=O', 'half-life', 6),
  ('CCn1nc2c(-c3ccc(Cl)cc3)c(-c3ccc(C#N)cc3)c(=O)n(Cc3ccc(C#N)cc3)n2c1=O', 'half-life', 8),
  ('CCn1nc2c(-c3ccc(Cl)cc3)c(-c3cnc(C)nc3)c(=O)n(Cc3ccc(C(F)(F)F)nc3C)n2c1=O', 'half-life', 12);

Continue with the next compound.
# input # query: half-life of entry CCn1nc2c(-c3ccc(Cl)cc3)c(-c3ccc(CO)nc3)c(=O)n(Cc3ccc(C(F)(F)F)nc3C)n2c1=O
# output 9

---

- Test system: Liver microsome
- assayNotes: Clearance in rat liver microsomes at 1 to 3 uM after 20 mins by LC/MS/MS analysis
# CLH per record follows
Quick reminder: number only, in nmol/min/mg, skip the unit.

INSERT INTO results (recordsmiles, quantitativeresult) VALUES
  ('CCn1nc2c(-c3ccc(C)cc3)c(-c3ccc(C#N)cc3)c(=O)n(Cc3ccc(C(F)(F)F)nc3C)n2c1=O', 0.052),
  ('CCCn1nc2c(-c3ccc(Cl)cc3)c(-c3ccc(C#N)cc3)c(=O)n(Cc3ccc(C(F)(F)F)nc3C)n2c1=O', 0.17),
  ('Cc1nc(C(F)(F)F)ccc1Cn1c(=O)c(-c2ccc(C#N)cc2)c(-c2ccc(Cl)cc2)c2nn(C(C)C)c(=O)n21', 0.014),
  ('CCn1nc2c(-c3ccc(Cl)cc3)c(-c3ccc(C#N)c(C)c3)c(=O)n(Cc3ccc(C(F)(F)F)nc3C)n2c1=O', 0);

Continue with the next compound.
# input # query: CLH of entry CCc1nc(C(F)(F)F)ccc1Cn1c(=O)c(-c2ccc(C#N)cc2)c(-c2ccc(Cl)cc2)c2nn(CC)c(=O)n21
# output 0.152

---

# pIC50 per record follows
- targetEntity: Cytochrome P450 3A4 (Homo sapiens, UniProt P08684)
- assayNotes: Inhibition of human recombinant CYP3A4
pIC50: −log10 of the molar value.

Before answering, review these 3 worked examples.
INSERT INTO measurements (recordsmiles, result) VALUES
  ('CCn1nc2c(-c3ccc(Cl)cc3)c(-c3ccc(C#N)cc3)c(=O)n(Cc3ccc(C(F)(F)F)nc3C)n2c1=O', '< 4.40'),
  ('CCn1nc2c(-c3ccc(Cl)cc3)c(-c3cnc(C)nc3)c(=O)n(Cc3ccc(C(F)(F)F)nc3C)n2c1=O', '< 4.40'),
  ('Cc1nc(C(F)(F)F)ccc1Cn1c(=O)c(-c2ccncc2)c(-c2ccc(Cl)cc2)c2nn(C)c(=O)n21', 5.17);

Continue with the next molecule.
# input # query: pIC50 of entry CCn1nc2c(-c3ccc(Cl)cc3)c(-c3cnc(N(C)C)nc3)c(=O)n(Cc3ccc(C#N)cc3)n2c1=O
# output < 4.40

---

- assayNotes: Aqueous solubility of the compound
- Type: physicochemical
- measurementSetup: buffer
observable: solubility (µg/mL)
Quick reminder: number only, in µg/mL, skip the unit.

Before answering, review these 3 worked examples.
INSERT INTO measurements (recordsmiles, observable, unitssymbol, quantitativeresult) VALUES
  ('Cn1nc2c(-c3ccc(Cl)cc3)c(-c3ccncc3)c(=O)n(Cc3ccc(C(F)(F)F)nc3)n2c1=O', 'solubility', 'µg/mL', 40),
  ('CCn1nc2c(-c3ccc(Cl)cc3)c(-c3ccc(C#N)cc3)c(=O)n(Cc3ccc(C(F)(F)F)nc3C)n2c1=O', 'solubility', 'µg/mL', 3),
  ('CCn1nc2c(-c3ccc(Cl)cc3)c(-c3cnc(C)nc3)c(=O)n(Cc3ccc(C(F)(F)F)nc3C)n2c1=O', 'solubility', 'µg/mL', 17);

# input # query: solubility of entry Cn1c(=O)c(-c2ccc(Cl)cc2)c(-c2ccncc2)c2nn(Cc3ccc(C(F)(F)F)nc3)c(=O)n21
# output 1

---

# IC50 per record follows
- targetEntity: UniProtKB P08684
- assayNotes: Inhibition of human recombinant CYP3A4

Before answering, review these 3 worked examples.
INSERT INTO measurements (recordsmiles, observable, result) VALUES
  ('CCn1nc2c(-c3ccc(Cl)cc3)c(-c3ccncc3)c(=O)n(Cc3ccc(C(F)(F)F)nc3)n2c1=O', 'IC50', '18 µM'),
  ('CCn1nc2c(-c3ccc(Cl)cc3)c(-c3cnn(C)c3)c(=O)n(Cc3ccc(C#N)cc3)n2c1=O', 'IC50', '3.4 µM'),
  ('CCn1nc2c(-c3ccc(Cl)cc3)c(-c3ccncc3C)c(=O)n(Cc3ccc(C(F)(F)F)nc3C)n2c1=O', 'IC50', '> 40 µM');

# input # query: IC50 of entry CCn1nc2c(-c3ccc(Cl)cc3)c(-c3ccncc3F)c(=O)n(Cc3ccc(C(F)(F)F)nc3C)n2c1=O
# output 7 µM

---

# bioavailability per record follows
- assayNotes: Oral bioavailability in dog
- Assay type: ADME, organism-based, Canis lupus familiaris
- measurementSetup: in vivo
For clarity, give the value followed by its unit.

INSERT INTO measurements (recordsmiles, result) VALUES
  ('CCn1nc2c(-c3ccc(Cl)cc3)c(-c3ccncc3)c(=O)n(Cc3ccc(C(F)(F)F)nc3C)n2c1=O', '40%');

Continue with the next compound.
# input # query: bioavailability of entry CCn1nc2c(-c3ccc(Cl)cc3)c(-c3cnc(C)nc3)c(=O)n(Cc3ccc(C(F)(F)F)nc3C)n2c1=O
# output 75%

---

# half-life per record follows
- assayNotes: Elimination half life in human
- Format: ADME, organism-based
- measurementSetup: in vivo, read-out: beta t1/2 (converted)
For clarity, give the value followed by its unit.

Before answering, review these 2 worked examples.
INSERT INTO measurements (compound, result) VALUES
  ('Cc1c(C(=O)NN2CCCCC2)nn(-c2ccc(Cl)cc2Cl)c1-c1ccc(Cl)cc1 [RIMONABANT]', '216 h'),
  ('C[C@H](NC(=O)C(C)(C)Oc1ccc(C(F)(F)F)cn1)[C@@H](Cc1ccc(Cl)cc1)c1cccc(C#N)c1 [TARANABANT]', '72 h');

Continue with the next compound.
# input # query: half-life of entry CCNC1(C(N)=O)CCN(c2ncnc3c2nc(-c2ccccc2Cl)n3-c2ccc(Cl)cc2)CC1 [OTENABANT]
# output 120 h

---

- assayNotes: AUC (0 to 24 hrs) in rat at 10 mg/kg, qd
- Format: ADME, organism-based
- Parameters: time < 24 hr, dose 10 mg/kg
- measurementSetup: plasma
observable: AUC at 24 h (µM·h)
Quick reminder: number only, in µM·h, skip the unit.

# input # query: AUC at 24 h of entry CCn1nc2c(-c3ccc(Cl)cc3)c(-c3ccncc3)c(=O)n(Cc3ccc(C(F)(F)F)nc3C)n2c1=O
# output 48
